- assayOverview: qHTS of pediatric cancer cell lines to identify multiple opportunities for drug repurposing: Primary screen for Rh18 cells (AID 1347102); note: nearly all actives have a fitted effect of over 65% in size
- conditionNotes: Rh18 rhabdomyosarcoma viability, CellTiter-Glo luminescence, 48 h; series mostly up to 46 µM
Results filed as inconclusive are left out. The source made the active and inactive calls. Calls come from the whole dose curve; as a rule, active = well fitted cell-killing curve with a large enough effect; inconclusive = small, poorly fitted or top-dose-only effect; inactive = flat fitted curve, though single readings scatter.
API: response.call in active, inactive

Sample answers from the record:
* CC(=O)c1c(C)c2cnc(Nc3ccc(N4CCNCC4)cn3)nc2n(C2CCCC2)c1=O | active
* COC(=O)C[C@](O)(CCCC(C)(C)O)C(=O)O[C@@H]1C(OC)=C[C@]23CCCN2CCc2cc4c(cc2[C@H]13)OCO4 | inactive
* Nc1cccc(-c2cc3c(Oc4cccc(O)c4)ncnc3[nH]2)c1 | active
* Cc1coc2c1C(=O)C(=O)c1c-2ccc2c1CCCC2(C)C | active
* Cc1cn(-c2cc(NC(=O)c3ccc(C)c(Nc4nccc(-c5cccnc5)n4)c3)cc(C(F)(F)F)c2)cn1 | inactive
* COc1cccc2nc(-c3cccs3)nc(NN3C(=O)C=C(C)C3=O)c12 | active

Give the logged outcome of this assay for the following molecule: C[C@@H]1CN(CC(=O)Nc2ccc3c(c2)Cc2cccc(-c4cc(=O)cc(N5CCOCC5)o4)c2S3)C[C@H](C)O1
active

Which outcome was entered for the molecule C=CC(=O)N1CCC[C@@H](n2nc(-c3ccc(Oc4ccccc4)cc3)c3c(N)ncnc32)C1 in this test?
active

Write down the call the test reported for this molecule. Item: COc1cccc(Nc2c(C(N)=O)cnc3c(C)cc(S(=O)(=O)c4cccc(C(=O)N(C)C)c4)cc23)c1
inactive

Could you kindly confirm the outcome this assay logged for CS(=O)(=O)c1ccc(-c2cnc(N)c(C(=O)Nc3ccccc3)n2)cc1 ?
inactive

Query: recorded result category for CCOc1cc2ncc(C#N)c(Nc3ccc(F)c(Cl)c3)c2cc1NC(=O)C=CCN(C)C in this test
active

Kindly provide the recorded test outcome for the following molecule: CC1(C)CC(=O)c2c(C(F)(F)F)nn(-c3ccc(C(N)=O)c(NC4CCC(OC(=O)CN)CC4)c3)c2C1 (configuration not stated)
active
